- Test system: Aβ-38
- PROTOCOL NOTES: MSD Human (6E10) Ab 3-PLEX elisa, conditioned media of 2B7 cells: Aβ-38
- Type: cell-based
- RECORDED CONDITIONS: Homo sapiens; Aβ-38 (superscript a); read-out: 50% reduction value
- Method: Assays were conducted to determine the ability of a Compound of Formula I to modulate […], and Aβ-38. Plates with capture antibodies were blocked for 1-2 hours at room temperature with 150 μL of the manufactures blocking reagent. […] Final Wash and Readout: • Wash wells 5× with MSD wash buffer • Added 150 μL 2×MSD read buffer • Read with MSD imager. A-Beta peptide levels for each peptide are calculated from the standard curve using the MSD software provided with the MSD 2400 Imager. […]
pIC50: −log10 of the molar value.
We begin with a simple list: items and their reported pIC50.

// below: answered compounds
CO[C@H](C(C)C)C1C[C@@H](C)[C@H]2C(O1)[C@H](O)[C@@]1(C)C3CC[C@H]4C(C)(C)[C@@H](O)CC[C@@]45C[C@@]35CC[C@]21C (stereo partly shown): 5.00 to 6.00
CCO[C@@H](C1C[C@@H](C)[C@H]2C(O1)[C@H](O)[C@@]1(C)C3CC[C@H]4C(C)(C)C(OC(=O)NC)CC[C@@]45C[C@@]35CC[C@]21C)C(C)(C)O (stereo partly shown): > 6.00
CC(C)[C@@H](OC(=O)N(C)C)C1C[C@@H](C)[C@H]2C(O1)[C@H](O)[C@@]1(C)C3CC[C@H]4C(C)(C)[C@@H](O)CC[C@@]45C[C@@]35CC[C@]21C (stereo partly shown): > 6.00
CC(=O)OC[C@@]1(C)C[C@@H](C)[C@H]2C(O1)[C@H](O)[C@@]1(C)C3CC[C@H]4C(C)(C)C(O)CC[C@@]45C[C@@]35CC[C@]21C (stereo partly shown): 5.00 to 6.00
CCNC(=O)O[C@H](C(C)C)C1C[C@@H](C)[C@H]2C(O1)[C@H](O)[C@@]1(C)C3CC[C@H]4C(C)(C)C(OC(N)=O)CC[C@@]45C[C@@]35CC[C@]21C (stereo partly shown): > 6.00

CC(=O)O[C@@H]([C@H]1C[C@@H](C)C2C(O1)[C@H](O)[C@@]1(C)[C@@H]3CC[C@H]4C(C)(C)[C@@H](O)CC[C@@]45C[C@@]35CC[C@]21C)C(C)(C)O (stereo partly shown) [drawing 1231] yielded pIC50 of 5.00 to 6.00

Looking up CC(C)[C@@H](OC(=O)N1CCC1)C1C[C@@H](C)[C@H]2C(O1)[C@H](O)[C@@]1(C)C3CC[C@H]4C(C)(C)C(OC(=O)NC5COC5)CC[C@@]45C[C@@]35CC[C@]21C (stereo partly shown) , I see its pIC50 listed as > 6.00

---

- Test system: Aβ-38
- PROTOCOL NOTES: MSD Human (6E10) Ab 3-PLEX elisa, conditioned media of 2B7 cells: Aβ-38
- Format: cell-based
- RECORDED CONDITIONS: Homo sapiens; Aβ-38 (superscript a); read-out: 50% reduction value
- Procedure: Assays were conducted to determine the ability of a Compound of Formula I to modulate […], and Aβ-38. Plates with capture antibodies were blocked for 1-2 hours at room temperature with 150 μL of the manufactures blocking reagent. […] Final Wash and Readout: • Wash wells 5× with MSD wash buffer • Added 150 μL 2×MSD read buffer • Read with MSD imager. A-Beta peptide levels for each peptide are calculated from the standard curve using the MSD software provided with the MSD 2400 Imager. […]
Measured IC50 accompanies every entry in the list below.

Look over these answered cases.
CCO[C@@H](C1C[C@@H](C)[C@H]2C(O1)[C@H](O)[C@@]1(C)C3CC[C@H]4C(C)(C)C(OC(N)=O)CC[C@@]45C[C@@]35CC[C@]21C)C(C)(C)O (some centres unmarked): < 1000 nM
C=C(C)CO[C@@H](C1C[C@@H](C)[C@H]2C(O1)[C@H](O)[C@@]1(C)C3CC[C@H]4C(C)(C)C(OC(=O)NC5CNC5)CC[C@@]45C[C@@]35CC[C@]21C)C(C)(C)O (some centres unmarked): < 1000 nM
CC(=O)O[C@@H]([C@H]1C[C@@H](C)C2C(O1)[C@H](O)[C@@]1(C)[C@@H]3CC[C@H]4C(C)(C)[C@@H](OC5CN(CC(N)=O)CCO5)CC[C@@]45C[C@@]35CC[C@]21C)C(C)(C)O (some centres unmarked) [drawing 1198]: < 1000 nM

GET /value?item= C[C@@H]1CC([C@@H]2OCOC2(C)C)OC2[C@H]1[C@@]1(C)CC[C@@]34C[C@@]35CCC(O[C@H]3CN(C6COC6)CCO3)C(C)(C)[C@@H]5CCC4[C@]1(C)[C@H]2O (some centres unmarked) &field=IC50 returns 1000 to 10000 nM

Sure, the documented IC50 for C[C@@H]1CC(C(O)C(C)(C)C)OC2[C@H]1[C@@]1(C)CC[C@@]34C[C@@]35CC[C@H](O)C(C)(C)[C@@H]5CCC4[C@]1(C)[C@H]2O (some centres unmarked) is 1000 to 10000 nM

---

pIC50 by entry:
- Test system: Aβ-40
- PROTOCOL NOTES: MSD Human (6E10) Ab 3-PLEX elisa, conditioned media of 2B7 cells: Aβ-40
- Format: cell-based
- RECORDED CONDITIONS: Homo sapiens, Aβ-40 (superscript b); read-out: 50% reduction value
pIC50: −log10 of the molar value.

CCO[C@@H]([C@H]1C[C@@H](C)[C@H]2[C@H](O1)[C@H](O)[C@@]1(C)C3CC[C@H]4C(C)(C)[C@@H](O[C@H]5CN(C6COC6)CCO5)CC[C@@]45C[C@@]35CC[C@]21C)C(C)(C)O (some centres unmarked): 5.00 to 6.00
CCO[C@@H](C1C[C@@H](C)[C@H]2C(O1)[C@H](O)[C@@]1(C)C3CC[C@H]4C(C)(C)C(O[C@H]5CN(CCC(=O)O)CCO5)CC[C@@]45C[C@@]35CC[C@]21C)C(C)(C)O (some centres unmarked): 5.00 to 6.00
CCO[C@@H](C1C[C@@H](C)[C@H]2C(O1)[C@H](O)[C@@]1(C)C3CC[C@H]4C(C)(C)C(O[C@H]5CN(C6CCOCC6)CCO5)CC[C@@]45C[C@@]35CC[C@]21C)C(C)(C)O (some centres unmarked): 5.00 to 6.00
C[C@@H]1CC(COC(=O)N(C)C)OC2[C@H]1[C@@]1(C)CC[C@@]34C[C@@]35CC[C@H](O)C(C)(C)[C@@H]5CCC4[C@]1(C)[C@H]2O (some centres unmarked): < 5.00

# ---- query molecule ----
pIC50 in this record for CC(C)[C@@H](OC(=O)N1CCC1)C1C[C@@H](C)[C@H]2C(O1)[C@H](O)[C@@]1(C)C3CC[C@H]4C(C)(C)C(OC(=O)N5CC(NCC(F)(F)F)C5)CC[C@@]45C[C@@]35CC[C@]21C (some centres unmarked) : < 5.00
